target: Adenosine A2A receptor (Homo sapiens, UniProt P29274); experiment: cAMP assay in 293A cells stably expressing the adenosine A2A receptor (CGS21680 stimulation, HTRF); assay type: cell-based; set-up: expressed in transfected cells; host or cells: 293A cells (Invitrogen, Cat# R705-07) infected with A2A-expressing lentivirus (custom packaged by Biosettia), puromycin selected; settings: 293A-A2AR cells, 0.1% BSA, 1 uM CGS; read-out: cAMP (nM) 0.1% BSA, 1 uM CGS
Sequence (P29274 whole entry): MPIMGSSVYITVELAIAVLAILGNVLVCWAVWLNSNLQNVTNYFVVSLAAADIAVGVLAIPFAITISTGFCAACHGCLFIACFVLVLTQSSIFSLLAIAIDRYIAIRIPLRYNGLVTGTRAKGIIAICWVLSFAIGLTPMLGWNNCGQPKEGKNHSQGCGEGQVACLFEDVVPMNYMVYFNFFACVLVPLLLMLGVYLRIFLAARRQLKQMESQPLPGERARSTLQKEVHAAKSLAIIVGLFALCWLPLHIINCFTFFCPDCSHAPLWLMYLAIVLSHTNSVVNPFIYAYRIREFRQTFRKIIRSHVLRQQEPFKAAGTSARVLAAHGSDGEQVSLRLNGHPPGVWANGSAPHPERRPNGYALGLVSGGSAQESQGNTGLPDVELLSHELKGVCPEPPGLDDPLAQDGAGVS
measured_attribute: IC50 (nM)

a: Cc1cc(-c2c(OCCN(C)c3cccnn3)nc(N)nc2-c2cccc(C#N)c2C)cc(C(F)F)n1 [Example 246]
b: Cc1cc(-c2c(OCc3nc(C(C)(C)O)cs3)nc(N)nc2-c2ccc(F)cc2)cc(C(F)F)n1 [Example 366]
Input: Choose between a and b : whose measured IC50 value is numerically larger? To answer, give the label that identifies your chosen option.
Output: b
(b: 1690 nM, a: 981 nM)

====

target: Adenosine A2A receptor (Homo sapiens); assay: Adenosine A2A receptor competitive binding assay (Tag-lite HTRF); details: Tag-lite adenosine A2A receptor ligand binding, 2 h room temperature; values separated by / are repeat determinations
pIC50: −log10 of the molar value.
measured_attribute: pIC50

Example molecules with recorded pIC50:
molecule: Cc1cc(-c2c(OCc3nc(C)n[nH]3)nc(N)nc2-c2ccc(F)cc2)cc(C(F)F)n1
reported_value: 7.85
--
molecule: CNC(=O)COc1nc(N)nc(-c2ccccc2)c1-c1cc(C)nc(C(F)(F)F)c1
reported_value: 7.95
--
molecule: Cc1cc(-c2c(OCc3ncc(S(C)(=O)=O)n3C(C)C)nc(N)nc2-c2ccc(F)cc2)cc(C(F)F)n1
reported_value: 7.59

a: CC(=O)N1CCN(c2ccc(CCOc3nc(N)nc(-c4ccc(F)cc4)c3-c3cc(C)nc(C(F)F)c3)cc2)CC1
b: COCCNC(=O)COc1nc(N)nc(-c2ccc(F)cc2)c1-c1cc(C)nc(C(F)F)c1
Input: Sort a and b by pIC50 descending and give the first. Answer by quoting the chosen item's label.
Output: a

a: Cc1cc(-c2c(OCCNc3ccccc3)nc(N)nc2-c2ccc(F)cc2)cc(C(F)F)n1
b: Cc1cc(-c2c(OCC(=O)NCCN(C)C)nc(N)nc2-c2ccc(F)cc2)cc(C(F)F)n1
c: CNS(=O)(=O)NCCOc1nc(N)nc(-c2ccccc2)c1-c1cc(C)nc(C(F)(F)F)c1
Input: Arrange the 3 entries by pIC50 so the values rise. Reply format: the labels, ordered as requested.
Output: b, a, c
(b: 6.58, a: 7.80, c: 8.41)

a: Cc1cc(-c2c(OCc3nccn3CC(C)(C)O)nc(N)nc2-c2ccc(F)cc2)cc(C(F)F)n1
b: CNC(=O)OCCOc1nc(N)nc(-c2ccccc2)c1-c1cc(C)nc(C(F)(F)F)c1
c: CCN(CC)C(=O)COc1nc(N)nc(-c2ccccc2)c1-c1cc(C)nc(C(C)(F)F)c1
d: CCNC(=O)COc1nc(N)nc(-c2ccccc2)c1-c1cc(C)nc(C(F)(F)F)c1
Input: Order the records, beginning with the lowest pIC50 and ending with the highest. Put the labels in the requested order and write them down.
Output: a, d, b, c
(a: 7.82, d: 8.11, b: 8.35, c: 8.83)

P: Cc1cc(-c2c(OCc3nccn3CC(C)C)nc(N)nc2-c2ccc(F)cc2)cc(C(F)F)n1
Q: CNC(=O)OCCOc1nc(N)nc(-c2ccc(F)cc2)c1-c1cc(C)nc(C(F)F)c1
R: Cc1cc(-c2c(OCCc3ccc(OC4CCN(S(C)(=O)=O)C4)cc3)nc(N)nc2-c2ccc(F)cc2)cc(C(F)F)n1 (stereo not shown)
S: CCN(CC)C(=O)CN(C)c1nc(N)nc(-c2ccccc2)c1-c1cc(C)nc(C(F)(F)F)c1
Input: List these items ordered by pIC50, big to small. Rank the items, then write their labels in that order.
Output: P, Q, R, S
